Target: recombinant human Meningioma Expressed Antigen 5 (MGEA5), also referred to as O-GlcNAcase (OGA) (Homo sapiens)
Construct: Full length OGA enzyme was purchased at OriGene (cat #TP322411); purchased OriGene TP322411
Sequence (O60502 whole entry): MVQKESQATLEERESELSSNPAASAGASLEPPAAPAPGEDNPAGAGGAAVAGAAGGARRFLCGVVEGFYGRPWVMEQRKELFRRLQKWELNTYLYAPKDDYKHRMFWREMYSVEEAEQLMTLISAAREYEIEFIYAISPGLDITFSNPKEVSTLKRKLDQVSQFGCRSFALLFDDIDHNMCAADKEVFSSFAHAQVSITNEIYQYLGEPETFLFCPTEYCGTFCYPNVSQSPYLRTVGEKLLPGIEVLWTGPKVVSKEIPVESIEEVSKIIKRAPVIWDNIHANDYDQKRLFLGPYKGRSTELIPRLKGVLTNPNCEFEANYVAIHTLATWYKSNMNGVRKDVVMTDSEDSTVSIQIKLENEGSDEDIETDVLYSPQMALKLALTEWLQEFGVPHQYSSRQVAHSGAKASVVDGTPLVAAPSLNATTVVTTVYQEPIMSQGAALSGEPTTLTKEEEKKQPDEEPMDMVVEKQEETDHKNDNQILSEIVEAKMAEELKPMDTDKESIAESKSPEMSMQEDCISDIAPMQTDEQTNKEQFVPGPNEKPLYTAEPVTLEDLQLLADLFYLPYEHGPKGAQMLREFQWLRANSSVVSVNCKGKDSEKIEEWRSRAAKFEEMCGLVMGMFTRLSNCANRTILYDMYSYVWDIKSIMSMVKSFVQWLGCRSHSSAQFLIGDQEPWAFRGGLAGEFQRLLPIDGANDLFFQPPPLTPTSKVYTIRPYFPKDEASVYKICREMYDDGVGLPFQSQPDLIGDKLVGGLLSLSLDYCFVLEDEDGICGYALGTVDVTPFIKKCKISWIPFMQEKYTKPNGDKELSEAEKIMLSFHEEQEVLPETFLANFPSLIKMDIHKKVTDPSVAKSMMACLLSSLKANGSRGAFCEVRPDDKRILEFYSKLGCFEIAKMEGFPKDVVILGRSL
Experiment: OGA biochemical assay (inhibition of FM-GlcNAc hydrolysis, fluorescence)
Conditions: FM-GlcNAc substrate, maximal effect, read-out: Enzymatic Emax (%)
observed.property: Emax (%)
Give bare numbers, in %.

compound	assay.result
Cc1cc(C[C@H]2CCN(C(C)c3cc4c(cc3F)OCCO4)C2)cc(C(F)(F)F)n1 (some centres unmarked)	102
COc1cc(C[C@H]2CN(C(C)c3ccc4c(n3)OCCO4)C[C@@H]2C)cc(C)n1 (mixture of isomers)	100
COc1cc(OC[C@@H]2CCN(C(C)c3ccc4c(n3)OCCO4)C2)cc(C)n1 (some centres unmarked)	91
Cc1cc(C[C@H]2CCN(C(C)c3ccc4c(c3)OCC4)C2)cc(C(F)(F)F)n1 (some centres unmarked)	103
COc1cc(C[C@@H]2CCN([C@H](C)c3ccc4c(n3)OCCO4)C2)cc(C)n1 (single isomer, unassigned)	100

State recorded Emax for all listed compounds.
1. CC(c1nc2c(cc1F)OCCO2)N1CC[C@@H](Oc2ccc(C#N)nn2)C1 (some centres unmarked)
2. COc1cc(CC2(C)CCN(C(C)c3ccc4c(n3)OCCO4)C2)cc(C)n1 (mixture of isomers) [Product 91]
3. Cc1cc(O[C@@H]2CCN(C(C)c3nc4c(cc3F)OCCO4)C2)cc(C)n1 (some centres unmarked) [Product 38]

93
100
98
